target: Tyrosyl-tRNA synthetase, putative (Trypanosoma cruzi (strain CL Brener)) (UniProt Q4DSP6); experiment: Trypanosoma cruzi tyrosyl tRNA synthetase (TcYRS) SOP; format: functional; set-up: scale not given: direction of the effect not stated beside the values; conditions: 30 µM
Sequence (Q4DSP6 as listed by the source): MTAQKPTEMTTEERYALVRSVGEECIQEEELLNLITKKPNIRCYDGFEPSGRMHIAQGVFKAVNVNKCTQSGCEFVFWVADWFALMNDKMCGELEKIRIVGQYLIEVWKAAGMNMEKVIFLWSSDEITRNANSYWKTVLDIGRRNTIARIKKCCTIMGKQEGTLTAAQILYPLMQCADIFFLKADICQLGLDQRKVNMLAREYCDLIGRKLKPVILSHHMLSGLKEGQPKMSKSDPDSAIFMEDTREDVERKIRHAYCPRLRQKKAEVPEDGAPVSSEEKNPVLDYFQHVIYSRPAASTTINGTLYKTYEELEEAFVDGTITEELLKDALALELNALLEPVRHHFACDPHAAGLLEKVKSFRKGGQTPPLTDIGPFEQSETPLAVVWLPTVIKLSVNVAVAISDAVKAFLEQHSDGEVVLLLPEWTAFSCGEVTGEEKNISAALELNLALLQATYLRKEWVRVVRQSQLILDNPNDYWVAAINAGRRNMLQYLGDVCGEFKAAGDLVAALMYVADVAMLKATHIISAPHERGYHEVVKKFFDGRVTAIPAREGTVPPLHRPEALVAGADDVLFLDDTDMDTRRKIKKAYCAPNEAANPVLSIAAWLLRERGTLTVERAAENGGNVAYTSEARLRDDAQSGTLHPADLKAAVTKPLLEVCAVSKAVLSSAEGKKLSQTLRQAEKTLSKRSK
Task for the reader: assign each of the following molecules its reported Percent Effect.
Respond with the bare value in %.

The value of Percent Effect measured for the molecule CCc1nc(C)c(C(=O)N2C[C@H]3CC[C@@H]2CN(S(=O)(=O)N(C)C)C3)s1 turned out to be 3.7

The value of Percent Effect measured for the molecule CCn1nnc2c1C(COC)CN(Cc1ccsc1)C2 (stereo not given) turned out to be 3.7

The value of Percent Effect measured for the molecule CCOc1ccccc1CSc1nnc(CC2CCS(=O)(=O)C2)n1C (stereo not given) turned out to be 11.1

The value of Percent Effect measured for the molecule CC(Cn1cccn1)NC(=O)NCc1ccc(S(N)(=O)=O)cc1 (stereo not given) turned out to be 23.5

The value of Percent Effect measured for the molecule O=C(COc1coc(CN2CCCCC2)cc1=O)Nc1ccc(Cl)cc1 turned out to be 10.3
